The measured values listed here are drawn from ChEMBL document CHEMBL1961873.

TESTED ON: Serine/threonine-protein kinase BRSK1 (Homo sapiens) (UniProt Q8TDC3)
Sequence (Q8TDC3 whole entry): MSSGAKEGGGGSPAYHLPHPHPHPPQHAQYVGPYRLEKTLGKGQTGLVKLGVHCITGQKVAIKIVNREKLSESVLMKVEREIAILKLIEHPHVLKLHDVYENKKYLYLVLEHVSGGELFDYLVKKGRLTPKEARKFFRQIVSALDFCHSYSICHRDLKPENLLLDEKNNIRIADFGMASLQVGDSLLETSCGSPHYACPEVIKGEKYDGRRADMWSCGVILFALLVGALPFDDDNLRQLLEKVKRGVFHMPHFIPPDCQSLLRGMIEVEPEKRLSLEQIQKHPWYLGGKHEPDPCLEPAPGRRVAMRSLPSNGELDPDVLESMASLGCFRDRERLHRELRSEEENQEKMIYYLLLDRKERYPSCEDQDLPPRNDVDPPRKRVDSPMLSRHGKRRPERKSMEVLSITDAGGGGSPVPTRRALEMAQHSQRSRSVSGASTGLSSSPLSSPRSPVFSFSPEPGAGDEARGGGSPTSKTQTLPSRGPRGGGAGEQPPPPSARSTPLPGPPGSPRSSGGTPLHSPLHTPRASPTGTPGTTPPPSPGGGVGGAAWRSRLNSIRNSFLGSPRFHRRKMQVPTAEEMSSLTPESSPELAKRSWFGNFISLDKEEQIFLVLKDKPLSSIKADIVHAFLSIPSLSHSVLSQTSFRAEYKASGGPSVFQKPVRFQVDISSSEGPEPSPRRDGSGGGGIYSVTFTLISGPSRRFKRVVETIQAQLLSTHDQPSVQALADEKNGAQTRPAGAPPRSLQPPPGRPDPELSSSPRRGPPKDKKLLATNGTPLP
RECORDED CONDITIONS: at 0.1 µM
Description: GSK_PKIS: BRSK1 mean inhibition at 0.1 uM [Nanosyn]
METRIC NAME: inhibition (%)

- STRUCTURE: "NS(=O)(=O)c1cccc(-c2cc3ccncc3cc2OCc2ccccc2)c1"
  REPORTED: 3.31
- STRUCTURE: "NS(=O)(=O)c1ccc(-c2cc3ccncc3cc2OCc2ccccc2)cc1"
  REPORTED: -0.48
- STRUCTURE: "OCc1ccc(-c2nc(-c3ccccn3)c(-c3ccc4c(c3)OCO4)[nH]2)cc1"
  REPORTED: 2.53
- STRUCTURE: "FC(F)(F)c1ccc(-c2nn3ncccc3c2-c2ccnc(Nc3ccc4c(c3)OCCO4)n2)cc1"
  REPORTED: 5.08
- STRUCTURE: "Nc1nccc(C#Cc2cncnc2Nc2ccc(OCc3cccc(F)c3)c(Cl)c2)n1"
  REPORTED: 3.95
- STRUCTURE: "Cc1ccc(O)cc1Nc1ccnc2ccc(S(C)(=O)=O)cc12"
  REPORTED: 0.5
